Each recorded value in this set is attributed to the supplement of paper PMC12764529.

- test.name: folding stability dG unfold (combined trypsin and chymotrypsin); higher = more stable
Each item that follows carries a reported folding stability dG unfold.
# output: bare number, implied unit kcal/mol

* SAGGSAGGKKTVEIEMTVDELLAALKSLSEEELKNVKIIGKDGKEFTLEDLEKNPGKIYKIEVKSAGGSAGG [r6_428_TrROS_Hall] | 1.82

Sample SAGGSKTITIELTTKDGYKFTITVTEKDDKVTANITFLDPTVTPEKIDETIATLEKLAKEAGKNLTISSAGG [r13_774_TrMRF] ; folding stability dG unfold observed: 3.36

sequence SAGGSAGGMVISLPNNYKIKLGITDAEFDEVKVYTGPNGPKKLVSGANIKLKIGISIYKSNDNSSAGGSAGG [r6_585_TrMRF] , folding stability dG unfold observed: 1.4

Lab note: SAGGSAGGSAGGSGSKEPKYYYRVVVEDDGNPVVRTYAPDEPLPAPANLKVFPFLADEESAGGSAGGSAGGS [r4_107_TrMRF] gave folding stability dG unfold of 0.452

# folding stability dG unfold of SAWYIIKIEIYNPGQNEPIASHTFMVPEEDLDAFKEKIADQFGMNPGWQIKVEIQPIPPVRDKDGEWKWSAG [r14_297_TrROS] = 1.91

# folding stability dG unfold of SAGMIEITLYPPKAVVDVTVTIGGESESRTIPVDGKSKEEVIEEAREEVKAEYPDKAITTKVTEVPGDGSAG [r5_180_JUSTAS] = 0.641

Record SAGGSAGGKTISIPGSIEEIQEKLGGPIDEVEHNKPGSGSYKPKNGKPITIHFDSPEDILDFFKSAGGSAGG [r6_19_TrROS] , field folding stability dG unfold: 0.206

The recorded folding stability dG unfold for entry SAGGSAGGGMVKVTLRITYYNSTGPYTSDRVFELPPDEVEALIEAIPPPPDATPEVEVEREPLGSAGGSAGG [r6_428_JUSTAS] equals 1.22

The sequence listed as SAGGSAKITPGEEINFMFYNPENGQPFMVRIRIEKITVKRKPKDGKRKVEYKIKIEMSPGMKEITISAGGSA [r15_248_TrROS] shows folding stability dG unfold equal to 3.23

The reported value for SMKPPVKVRIRIYNPETGEEIATIEIEFLPDGTVKVTIEIDGKKYEIEMSLDELLEALKKLPFKIVEIEPSA [r9_470_TrROS_Hall] in terms of folding stability dG unfold is 3.57
